# Tested on: C-4-I (Cervical Carcinoma);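 also: after 72 h of two-drug dosing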
# Procedure Text: Bliss excess, mean over the matrix (fraction); higher = more synergy
Endpoint: Bliss excess
# print the numeric value only

GET /values?item= Cc1c2c(nn1C)CSCc1cc(n(C)n1)CSc1cc(c3ccccc3c1)OCCCc1c(C(=O)O)n(C)c3c-2c(Cl)ccc13 [AZD5991] + C1CN(CCC1(C(=O)N[C@@H](CCO)C2=CC=C(C=C2)Cl)N)C3=NC=NC4=C3C=CN4 [Capivasertib] (first compound max 1 µM, 7x7, partner max 3 µM) &system= C-4-I (Cervical Carcinoma) returns Bliss excess: 0.0117

Measured Bliss excess (C-4-I (Cervical Carcinoma)), entry CN(CCO)CC[C@H](CSc1ccccc1)Nc1ccc(S(=O)(=O)NC(=O)c2ccc(N3CCC([C@@H](O)c4ccccc4-c4ccc(Cl)cc4)CC3)cc2)cc1S(=O)(=O)C(F)(F)F [AZD4320] + C=CCn1c(=O)c2cnc(Nc3ccc(N4CCN(C)CC4)cc3)nc2n1-c1cccc(C(C)(C)O)n1 [AZD1775] (first compound max 1 µM, partner max 1 µM) : 0.0656

The reported Bliss excess value, C-4-I (Cervical Carcinoma), for Cc1c2c(nn1C)CSCc1cc(n(C)n1)CSc1cc(c3ccccc3c1)OCCCc1c(C(=O)O)n(C)c3c-2c(Cl)ccc13 [AZD5991] + Cc1cc2ncnn2cc1Nc1ncc2c(n1)n(C1CCOCC1)c(=O)n2C [AZD7648] (first compound max 1 µM, 7x7, partner max 10 µM) reads -0.0135
